molecular target: B-Raf (V600E)-kinase (Homo sapiens (Human), UniProt P15056, V600E); experiment: Kinase test B-Raf (V600E); settings: 250 μM ATP, biotinylated MEK1 substrate
Sequence (P15056 whole entry V600E): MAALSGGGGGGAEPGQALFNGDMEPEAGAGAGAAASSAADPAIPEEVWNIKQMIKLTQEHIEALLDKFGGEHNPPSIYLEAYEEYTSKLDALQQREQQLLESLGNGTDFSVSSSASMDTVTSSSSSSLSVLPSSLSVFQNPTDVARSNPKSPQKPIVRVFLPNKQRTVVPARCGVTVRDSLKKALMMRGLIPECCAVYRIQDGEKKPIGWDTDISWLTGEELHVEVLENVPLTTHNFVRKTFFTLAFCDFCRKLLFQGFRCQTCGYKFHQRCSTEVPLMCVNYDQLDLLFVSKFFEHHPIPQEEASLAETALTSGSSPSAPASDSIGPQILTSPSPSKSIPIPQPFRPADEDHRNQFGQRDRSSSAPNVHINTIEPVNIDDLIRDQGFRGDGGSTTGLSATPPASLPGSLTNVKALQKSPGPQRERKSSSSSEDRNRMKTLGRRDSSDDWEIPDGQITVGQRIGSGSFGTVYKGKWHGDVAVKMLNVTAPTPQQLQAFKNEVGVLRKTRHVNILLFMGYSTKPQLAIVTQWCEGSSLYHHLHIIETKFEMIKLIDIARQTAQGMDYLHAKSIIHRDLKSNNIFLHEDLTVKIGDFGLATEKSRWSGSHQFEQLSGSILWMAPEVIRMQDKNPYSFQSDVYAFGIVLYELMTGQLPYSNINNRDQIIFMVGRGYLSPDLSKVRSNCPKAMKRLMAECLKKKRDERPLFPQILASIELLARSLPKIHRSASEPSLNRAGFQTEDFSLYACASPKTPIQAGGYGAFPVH
pIC50: −log10 of the molar value.
measured attribute: pIC50

Some compounds with recorded pIC50:
{"smiles input": "COc1c(NC(=O)c2ccc(C)c(Nc3ncnc4ccc(CC5CCN(C)CC5)nc34)c2)cc(C(C)(C)C)cc1NS(C)(=O)=O", "pIC50": 6.44}
{"smiles input": "Cc1ccc(C(=O)Nc2cc(N3CCCN(C)CC3)cc(C(F)(F)F)c2)cc1Nc1ncnc2ccc(N3CCOCC3)nc12", "pIC50": 8.30}
{"smiles input": "Cc1ccc(C(=O)Nc2cc(C(C)(C)C)nn2C)cc1Nc1ncnc2ccc(N3CCOCC3)nc12", "pIC50": 7.82}

(P) COc1c(NC(=O)c2ccc(C)c(Nc3ncnc4ccc(C5=CCN(C)CC5)nc34)c2)cc(C(C)(C)C)cc1NS(C)(=O)=O
(Q) COCCN1CCN(c2ccc3ncnc(Nc4cc(NC(=O)c5cccc(C(C)(C)C#N)c5)ccc4C)c3n2)CC1
(R) COc1c(NC(=O)c2ccc(C)c(Nc3ncnc4ccc(CC5CCN(C(C)C)CC5)nc34)c2)cc(C(C)(C)C)cc1NS(C)(=O)=O
(S) COc1ccc(NC(=O)c2ccc(C)c(Nc3ncnc4ccc(N5CCOCC5)nc34)c2)cc1C(F)(F)F
Returns the items ordered by pIC50, from maximum to minimum. Give me the labels in the order the question wants.
S, Q, P, R
(S: 7.96, Q: 7.74, P: 6.46, R: 6.26)
